assay: Fraction unbound in mouse plasma at 1 uM by equilibrium dialysis method; type: ADME, cell-free
Assign labels as follows, please: Met for Fu below 0.2; Not met for Fu equal to or exceeding 0.2.

Cn1c(CN2CCCC2)cc2cc3c(cc21)OCCc1c-3[nH]c(=O)c(C(=O)O)c1O = Met
Cn1c(CNC2(C)CCC2)cc2cc3c(cc21)OCCc1c-3[nH]c(=O)c(C(=O)O)c1O = Met
COc1c(N2C[C@@H]3CCCN[C@@H]3C2)c(F)cc2c(=O)c(C(=O)O)cn(C3CC3)c12 [MOXIFLOXACIN] = Not met

Query: Is 0.2 strictly greater than the compound's reported Fu? compound: "CN(C)Cc1cc2cc3c(cc2n1C)OCCc1c-3[nH]c(=O)c(C(=O)O)c1O"
Result: Not met

Query: Would you mind doing "Cn1c(CNC2(C)CCC2)cc2cc3c(cc21)CCCc1c-3[nH]c(=O)c(C(=O)O)c1O" as well?
Result: Met

Query: Ok, now "Cn1c(CN2CCCC2)cc2cc3c(cc21)CCCc1c-3[nH]c(=O)c(C(=O)O)c1O"
Result: Met

Query: Field entry: "CCNCc1cc2cc3c(cc2n1C)CCCc1c-3[nH]c(=O)c(C(=O)O)c1O"
Result: Met

Query: Also need "CN(C)Cc1cc2cc3c(cc2n1C)CCCc1c-3[nH]c(=O)c(C(=O)O)c1O" , thanks.
Result: Met

Query: What about this compound? "CC(C)NCc1cc2cc3c(cc2n1C)CCCc1c-3[nH]c(=O)c(C(=O)O)c1O"
Result: Met

* * *

system: Klebsiella pneumoniae; assay: Antibacterial activity against wild type Klebsiella pneumoniae ATCC 35657 by CLSI M100-S17 protocol based method; type: functional
measurement type: MIC (µg/mL)
# unit: µg/mL | format: bare number

Recorded MIC, per entry:
CCNCc1cc2cc3c(cc2n1C)SCCc1c-3[nH]c(=O)c(C(=O)O)c1O = 1
Cn1c(CN2CCCC2)cc2cc3c(cc21)COCc1c-3[nH]c(=O)c(C(=O)O)c1O = 3.1
CNCc1cc2cc3c(cc2n1C)CCCc1c-3[nH]c(=O)c(C(=O)O)c1O = 0.39
CN(C)Cc1cc2cc3c(cc2n1C)OCCc1c-3[nH]c(=O)c(C(=O)O)c1O = 1
CC(C)NCc1cc2cc3c(cc2n1C)CCCc1c-3[nH]c(=O)c(C(=O)O)c1O = 0.78
CN(C)CCNCc1cc2cc3c(cc2n1C)OCCc1c-3[nH]c(=O)c(C(=O)O)c1O = 31.3
CN(C)Cc1cc2cc(-c3[nH]c(=O)c(C(=O)O)c(O)c3C3CC3)ccc2n1C = 31.3
CC(C)NCc1cc2cc3c(cc2n1C)NCCc1c-3[nH]c(=O)c(C(=O)O)c1O = 6.3
CCc1c(-c2ccc3c(c2)cc(CN(C)C)n3C)[nH]c(=O)c(C(=O)O)c1O = 0.78
CCc1c(-c2ccc3c(c2)cc(CNC(C)C)n3C)[nH]c(=O)c(C(=O)O)c1O = 0.39

Query: What value of MIC has been recorded for this entry: "CN(C)Cc1cc2cc3c(cc2n1C)COCc1c-3[nH]c(=O)c(C(=O)O)c1O"
Result: 3.1

Query: Entry to check: "COCCNCc1cc2cc3c(cc2n1C)OCCc1c-3[nH]c(=O)c(C(=O)O)c1O"
Result: 2

Just for reference, ChEMBL document CHEMBL4190388 is where these values come from.
